SYSTEM_UNDER_TEST: T1, mouse TMEM106B (mouse, UniProt Q80X71 2-275)
T1 construct: on transiently transfected HEK293 cells, or natively expressed on mouse Neuro2a cells; also called moTMEM106B; murine TMEM106B
ASSAY_METHOD_TEXT: FACS, HEK293 transfectants;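 further: flow cytometry binding of hybridoma supernatants to HEK293 cells transiently expressing human, cyno or mouse TMEM106B, read as anti-mouse-APC median fluorescence, live cells only, 30 min on ice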
METRIC: fold-change over parental HEK293 (fold)
Lab book: enter the figure in fold, no units written.

Q. State the recorded fold-change over parental HEK293 for this entry: anti-TMEM106B antibody TM-15 (antibody, V domains shown, mouse IgG from hybridoma) VH: QVQLQQPGAEFVRPGASVKLSCKASGYTFTNYWITWVKQRPGHGLEWIGDIYPGSGNSNYNESFKRKATLTVDTSSSTAYMHLSSQTSEDSAVYFCARKAYGGFPYWGQGTLVTVSA VL: DIQMTQSPASLSVSVGETVTITCRVSENIYNNLAWYQQKQEKSPQLLVFAATNLADGVPSRFSGSGSGTQFSLKINSLQSEDFGTYYCQHFWDTPFTFGSGTKLEIK
A. 46.8

Q. I have this binder here, anti-TMEM106B antibody TM-27 (antibody, V domains shown) VH: QVQLQQSGAELVRPGTSVKVSCKASGYALTNYLIEWVKQRPGQGLEWIGVINPGSGSTKYNEKFKGKATLTADKSSSTAYMQLSSLTSEDSAVYFCARIIYDHDWYFDVWGTGTTVTVSS VL: QIVLTQSPAIMSASPGEKVTISCSASSSISYMYWYQQKPGSSPKPWIYRTSTLASGVPARFSGSGSGTSYSLTISSMEAEDAATYYCQQYHSYPRTFGGGTKLEIK , and I need its recorded fold-change over parental HEK293.
A. 3.32

Q. What value of fold-change over parental HEK293 has been reported for the following binder? anti-TMEM106B antibody TM-8 (antibody, V domains shown, mouse IgG from hybridoma) VH: QIQLVQSGPELKKPGETVKISCKASGYTFTDYPMHWVKQAPGKGFKWMGVIYTDTGEPKYAEVFKGRFAFSLETSASTAYLQINNLKNEDTATYFCVRRLAYWGQGTLVTVSA VL: DIKMTQSPSSMYASLGERVTITCKASQDINSYLSWFQQKPGKSPKTLIFRANRLVDGVPSRFSGSGSGQDYSLTISSLEYEDMGIYYCLQYDEFPLTFGAGTKLEMK
A. 1.63
